read-out: Interleukin-1 alpha (IL1a), IL1A (gene 3552); assay: BSK_BE3C_IL1a: BioMAP Diversity Plus: BE3C Assay for Interleukin-1 alpha (IL1a) Biomarker Activity (AID 2283016); conditions: primary human bronchial epithelial cells; actives raise or lower the signal
The source made the active and inactive calls. How the source made its calls: active means hit-call score of the fitted dose curve at least 0.9, where 1 is the maximum; inactive means score below 0.9.
Classes used: active, inactive

In [3]: df
Out[3]:
                                    compound     class
 0               C=CC(=C)CC/C=C(\C)CCC=C(C)C  inactive
 1                   O=C1NS(=O)(=O)c2ccccc21  inactive
 2   N=C(N)c1ccc(OCCCCCOc2ccc(C(=N)N)cc2)cc1  inactive
 3                    CC(C)(C)c1ccc(O)c(O)c1    active
 4    Clc1ccc(Nc2nnc(Cc3ccncc3)c3ccccc23)cc1    active
 5                             COc1cccc(O)c1  inactive
 6  CCOC(=O)CN[C@@H](C(=O)N1CC[C@H]1C(=O)NCc1ccc(/C(N)=N/O)cc1)C1CCCCC1  inactive
 7  C[C@]12CC[C@@H]3c4ccc(O)cc4CC[C@H]3[C@@H]1C[C@@H](O)[C@@H]2O  inactive
 8        CCC(C)c1ccccc1O (stereo not given)  inactive
 9                          Oc1cc2ccccc2cc1O  inactive
10  CN(Cc1cnc2nc(N)nc(N)c2n1)c1ccc(C(=O)N[C@@H](CCC(=O)O)C(=O)O)cc1  inactive
11  O=C1OC2(c3ccccc31)c1cc(I)c(O)c(I)c1Oc1c2cc(I)c(O)c1I    active
12  CCCCc1oc2ccccc2c1C(=O)c1cc(I)c(OCCN(CC)CC)c(I)c1    active
13                   CC[N+](CC)(CC)Cc1ccccc1  inactive
14  C=CC(C)(CCC=C(C)C)OC(C)=O (stereo not given)  inactive

---

read-out: Human Leukocyte Antigen - DR isotype (HLADR), HLA-DRA (gene 3122); assay: BSK_CASM3C_HLADR: BioMAP Diversity Plus: CASM3C Assay for Human Leukocyte Antigen - DR isotype (HLADR) Biomarker Activity (AID 2283043); details: primary human coronary artery smooth muscle cells; actives raise or lower the signal;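 further: cell-surface HLA-DR protein level quantified by ELISA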
Activity calls are given as the source filed them. How the source made its calls: active means hit-call score of the fitted dose curve at least 0.9, where 1 is the maximum; inactive means score below 0.9.
Possible outcomes: yes (1) for active, no (0) for inactive

                                  structure    class
0                     O=C(c1ccccc1)c1ccccc1   no (0)
1                          CCCCCc1ccc(O)cc1  yes (1)
2  CCOC(=O)CN[C@@H](C(=O)N1CC[C@H]1C(=O)NCc1ccc(/C(N)=N/O)cc1)C1CCCCC1   no (0)
3    Clc1ccc(Nc2nnc(Cc3ccncc3)c3ccccc23)cc1   no (0)
4               C=CC(=C)CC/C=C(\C)CCC=C(C)C   no (0)
5                           OCC(CO)(CBr)CBr   no (0)
6  O=C(O)C(F)(F)OC(F)(F)C(F)(F)OC(F)(F)C(F)(F)OC(F)(F)C(F)(F)C(F)(F)C(F)(F)F   no (0)
